protocol-text: Binding affinity to Gallus gallus PurE
parameter-measured: Ki (nM)

> print(dat)
                                   compound  parameter.measured  measurement.unit  endpoint.value
1  Nc1c([N+](=O)[O-])ncn1[C@@H]1O[C@H](COP(=O)(O)O)[C@@H](O)[C@H]1O                  Ki                nM            0.34

---

Tested on: Bacillus anthracis
protocol-text: Inhibition of recombinant Bacillus anthracis PurE assessed as change in melting temperature at 100 uM after 10 to 30 mins by high-throughput thermal shift screening
// values below are reported ΔTm
parameter-measured: ΔTm (°C)

> print(dat)
                                   compound              system  measurement.unit  endpoint.value
1             Cc1sc2ccsc2[n+]1CC(=O)O.[Br-]  Bacillus anthracis                °C             4.4
2  COc1cccc(C(=O)Nc2ccc(-c3cn4ccsc4n3)cc2)c1OC  Bacillus anthracis                °C               3
3  CCCCC(CC)CNc1nc2c(c(=O)[nH]c(=O)n2C)n1CC(O)COc1ccc(C)c(C)c1 (centres undefined)  Bacillus anthracis                °C             1.8
4  O=C(Cc1ccc(NC(=O)c2ccc(F)cc2Cl)cc1)NCc1cccs1  Bacillus anthracis                °C             1.8

---

System: Bacillus anthracis
protocol-text: Inhibition of recombinant Bacillus anthracis PurE assessed as inhibition of 4-carboxy-amino-imidazole ribonucleotide to N5-carboxy-amino-imidazole ribonucleotide conversion preincubated for 1.5 mins at 10 uM by mass spectrometry analysis
parameter-measured: inhibition (%)

> print(dat)
                                   compound  endpoint.value
1  CCCCC(CC)CNc1nc2c(c(=O)[nH]c(=O)n2C)n1CC(O)COc1ccc(C)c(C)c1 (stereo not given)               7
2  NS(=O)(=O)c1ccc(NC(=O)CSc2nnc(-c3ccccc3)o2)cc1              12
3  COc1cccc(C(=O)Nc2ccc(-c3cn4ccsc4n3)cc2)c1OC              17
4  O=C(Cc1ccc(NC(=O)c2ccc(F)cc2Cl)cc1)NCc1cccs1              20
5  Nc1c([N+](=O)[O-])ncn1[C@@H]1O[C@H](COP(=O)(O)O)[C@@H](O)[C@H]1O              24

---

// values below are reported MIC
System: Escherichia coli
protocol-text: Antimicrobial activity against TolC-deficient Escherichia coli BW25113 measured after overnight incubation
Type: functional
parameter-measured: MIC (µg/mL)

> print(dat)
                                   compound  endpoint.value
1  Cc1c(C(=O)Nc2nnc(-c3cc(Cl)ccc3Cl)o2)c(-c2ccccc2)nc2ccccc12            0.39
2  Cc1ccc(C)c(-c2nnc(NC(=O)c3cccc(Cl)c3)o2)c1            0.02
3  Cc1ccc(C)c(-c2nnc(NC(=O)c3cc(Cl)sc3Cl)o2)c1            0.07
4  COc1ccc(Cl)c(C(=O)Nc2nnc(-c3ccc(Br)cc3)o2)c1            0.39
